From: patent US6518450B2

# Test system: β1-adrenoceptor
# Assay context: versus isoproterenol, contraction of left atrium; Schild plot regression; six to eight experiments
Endpoint: PA2 value β1 left atrium

> print(dat)
                                   molecule  target.under.test                  endpoint  data.value
1  C=CCc1ccc(OCC(O)CNCCOc2ccccc2OC)c(OC)c1 (stereo not shown)    β1-adrenoceptor  PA2 value β1 left atrium        7.95
2  CCOC(=O)C=Cc1ccc(OCC(O)CNCCOc2ccccc2OC)c(OC)c1 (stereo not shown)    β1-adrenoceptor  PA2 value β1 left atrium        8.16
3  CC=Cc1ccc(OCC(O)CNCCOc2ccccc2OC)c(OC)c1 (stereo not shown)    β1-adrenoceptor  PA2 value β1 left atrium        7.89
4  CCCCCCCCC(=O)NCc1ccc(OCC(O)CNCCOc2ccccc2OC)c(OC)c1 (stereo not shown)    β1-adrenoceptor  PA2 value β1 left atrium        7.61

----------
# Test system: pentobarbital-anesthetized normotensive rats
# Assay context: 3 mg/kg intravenous, mean ± S.E. (n=6)
# Blood pressure change per record follows
Endpoint: Blood pressure change (mmHg)

> print(dat)
                                   molecule               endpoint  data.value
1  C=CCc1ccc(OCC(O)CNCCOc2ccccc2OC)c(OC)c1 (stereo not shown) [Compound 1]  Blood pressure change       −38.1
2  CCOC(=O)C=Cc1ccc(OCC(O)CNCCOc2ccccc2OC)c(OC)c1 (stereo not shown) [Compound 2]  Blood pressure change       −52.4
3  CCCCCCCCC(=O)NCc1ccc(OCC(O)CNCCOc2ccccc2OC)c(OC)c1 (stereo not shown) [Compound 3]  Blood pressure change       −52.0
4  CC=Cc1ccc(OCC(O)CNCCOc2ccccc2OC)c(OC)c1 (stereo not shown) [Compound 4]  Blood pressure change       −36.4

----------
# Target under test: β2-adrenoceptor (Cavia porcellus)
# Construct: from tissue; host or cells: isolated guinea pig trachea (spiral strips, reserpine-pretreated animal)
# Sequence (Q8K4Z4 whole entry): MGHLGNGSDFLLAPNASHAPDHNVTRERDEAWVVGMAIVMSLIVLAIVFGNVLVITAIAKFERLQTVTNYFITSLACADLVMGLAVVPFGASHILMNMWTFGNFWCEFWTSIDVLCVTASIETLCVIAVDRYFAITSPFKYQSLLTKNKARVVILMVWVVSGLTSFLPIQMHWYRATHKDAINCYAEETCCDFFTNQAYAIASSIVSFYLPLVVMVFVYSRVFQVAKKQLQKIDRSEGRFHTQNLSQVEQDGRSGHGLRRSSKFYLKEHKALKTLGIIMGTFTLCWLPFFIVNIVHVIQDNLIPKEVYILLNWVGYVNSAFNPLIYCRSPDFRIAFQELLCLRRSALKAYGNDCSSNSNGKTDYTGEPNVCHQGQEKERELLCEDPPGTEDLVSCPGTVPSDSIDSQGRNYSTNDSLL
# Method: β2 adrenergic blockade against isoproterenol, isolated guinea pig respiratory tract (Schild plot)
# Assay context: versus isoproterenol relaxation of detached respiratory tract; Schild plot regression
Endpoint: PA2 value β2

> print(dat)
                                   compound      endpoint  data.value
1  CCCCCCCCC(=O)NCc1ccc(OCC(O)CNCCOc2ccccc2OC)c(OC)c1 (stereo not shown) [Compound 3]  PA2 value β2        6.81
2  C=CCc1ccc(OCC(O)CNCCOc2ccccc2OC)c(OC)c1 (stereo not shown) [Compound 1]  PA2 value β2        6.59
3  CCOC(=O)C=Cc1ccc(OCC(O)CNCCOc2ccccc2OC)c(OC)c1 (stereo not shown) [Compound 2]  PA2 value β2        7.05
4  CC=Cc1ccc(OCC(O)CNCCOc2ccccc2OC)c(OC)c1 (stereo not shown) [Compound 4]  PA2 value β2        6.13

----------
In this section, each of the compounds is paired with its reported PA2 value α.
# System: α-adrenoceptor
# Assay context: versus L-phenylephrine contraction of detached chest artery; Schild plot regression
Endpoint: PA2 value α

> print(dat)
                                   compound  target.under.test  data.value
1  CCOC(=O)C=Cc1ccc(OCC(O)CNCCOc2ccccc2OC)c(OC)c1 (stereo not shown)     α-adrenoceptor        7.95
2  CC=Cc1ccc(OCC(O)CNCCOc2ccccc2OC)c(OC)c1 (stereo not shown)     α-adrenoceptor        7.20
3  C=CCc1ccc(OCC(O)CNCCOc2ccccc2OC)c(OC)c1 (stereo not shown)     α-adrenoceptor        8.12
4  CCCCCCCCC(=O)NCc1ccc(OCC(O)CNCCOc2ccccc2OC)c(OC)c1 (stereo not shown)     α-adrenoceptor        7.12

----------
# System: isolated guinea pig thoracic aorta
# Assay context: 10^−6 M; 10 μM L-phenylephrine contraction; mean ± S.E. (n=6)
Listed below: percentage of relaxation in comparison with the basal value values for each entry.
Endpoint: percentage of relaxation in comparison with the basal value (%)

> print(dat)
                                   compound                   target.under.test  unit.abbrev  data.value
1  CCCCCCCCC(=O)NCc1ccc(OCC(O)CNCCOc2ccccc2OC)c(OC)c1 (stereo not shown)  isolated guinea pig thoracic aorta            %       −34.5
2  CC=Cc1ccc(OCC(O)CNCCOc2ccccc2OC)c(OC)c1 (stereo not shown)  isolated guinea pig thoracic aorta            %       −23.4
3  C=CCc1ccc(OCC(O)CNCCOc2ccccc2OC)c(OC)c1 (stereo not shown)  isolated guinea pig thoracic aorta            %       −39.7
4  CCOC(=O)C=Cc1ccc(OCC(O)CNCCOc2ccccc2OC)c(OC)c1 (stereo not shown)  isolated guinea pig thoracic aorta            %       −35.9
